Provide the recorded Kd for the entries that follow.
molecular target: PPARα (Homo sapiens, UniProt Q07869); construct: The reporter is ERE-βGlob-Luc-SV-Neo; test: Cross-curve PPAR transactivation test, PPARα; conditions: HeLN cells stably transfected with Gal-hPPAR and luciferase reporter; cross curves against reference agonist, Schild regression; n.a means not active; read-out: PPAR alpha Kd app
Sequence (Q07869 200-468 limits assumed): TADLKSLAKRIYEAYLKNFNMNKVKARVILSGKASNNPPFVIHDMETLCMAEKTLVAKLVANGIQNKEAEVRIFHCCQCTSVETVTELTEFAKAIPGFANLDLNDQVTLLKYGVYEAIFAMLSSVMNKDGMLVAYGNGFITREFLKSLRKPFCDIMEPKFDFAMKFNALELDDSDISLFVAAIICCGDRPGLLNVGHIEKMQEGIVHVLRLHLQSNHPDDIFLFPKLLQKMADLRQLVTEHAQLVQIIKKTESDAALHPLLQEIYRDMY
I only need the number, in nM, no unit after it.

// query Kd value for entry CCCCCCCNC(=O)N(C)c1cccc(-c2ccc(/C=C(\OCC)C(=O)O)cc2)n1
1000

Look up Kd for this molecule: CCCCCCCNC(=O)N(C)c1cccc(-c2ccc(/C=C(\C)C(=O)O)cc2OCC)c1
4000

Report Kd for CCCCCNC(=O)N(C)c1cccc(-c2ccc(/C=C(\CCC)C(=O)O)cc2)c1 please.
500

Entry CCCCCNC(=O)N(C)c1cccc(-c2ccc(/C=C(\CC)C(=O)O)cc2)c1 : reported Kd = ?
2000

Any idea what Kd was measured for CCCCCCCC(=O)N(C)Cc1cccc(-c2ccc(/C=C(\OCC)C(=O)O)cc2)c1 ?
2000

---

target: PPARγ (Homo sapiens); construct: The reporter is ERE-βGlob-Luc-SV-Neo; assay: Cross-curve PPAR transactivation test, PPARγ; format: cell-based; settings: HeLN cells stably transfected with Gal-hPPAR and luciferase reporter; cross curves against reference agonist, Schild regression; n.a means not active; read-out: PPAR gamma Kd app
Sequence (P37231 238-505 limits assumed): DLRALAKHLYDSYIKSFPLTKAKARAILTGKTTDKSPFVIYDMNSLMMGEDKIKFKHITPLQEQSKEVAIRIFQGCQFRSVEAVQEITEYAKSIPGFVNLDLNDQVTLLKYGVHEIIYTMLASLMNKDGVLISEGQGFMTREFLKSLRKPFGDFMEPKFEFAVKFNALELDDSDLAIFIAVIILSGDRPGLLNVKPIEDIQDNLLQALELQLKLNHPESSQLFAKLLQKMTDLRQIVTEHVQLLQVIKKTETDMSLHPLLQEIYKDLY
Structures can show the parent of a compound that is named as a salt.
readout-name: Kd
Just so you know, I need the unit written after the number.

Recorded Kd of CCCCCCCNC(=O)N(C)c1cccc(-c2ccc(/C=C(\CC)C(=O)O)cc2)c1 , please.
4 nM

Data request, read-out Kd, for CCCCOc1cc(/C=C(\C)C(=O)O)ccc1-c1cccc(CN(C)C(=O)c2cccc(OC)c2)c1
30 nM

Any idea what Kd was measured for CCO/C(=C\c1ccc(-c2cccc(N(C)C(=O)NCCc3ccccc3)c2)cc1)C(=O)O ?
4 nM

Could you share which Kd value was measured for CCCCCNC(=O)N(C)c1cccc(-c2ccc(/C=C(\CCC)C(=O)O)cc2)c1 ?
4 nM

Requested read-out: Kd. Entry: CCCCCNC(=O)N(C)c1cccc(-c2ccc(/C=C(\OC)C(=O)O)cc2)c1
8 nM

Which Kd is reported for this compound? CCCCCCCNC(=O)N(C)c1cccc(-c2ccc(/C=C(\C)C(=O)O)cc2OCCC)c1
2 nM

Which measured Kd value corresponds to CCCCCNC(=O)N(C)c1cccc(-c2ccc(/C=C(\CC)C(=O)O)cc2)c1 ?
4 nM

Reported Kd for CCCCCCCNC(=O)N(C)c1cccc(-c2ccc(/C=C(\OCC)C(=O)O)cn2)c1 [Compound 4, hydrochloride] : what is it?
4 nM
